assay: yeast display, Sf9 membrane polyspecificity reagent, FACS + sequencing; frameworks hold sequencing errors
READOUT_NAME: polyreactivity (PSR sort gate)

SEQUENCE_CHAIN: QVQLVESGGGLVQAGGSLRLSCAASGITFVLNARGWYRQAPGKERELVARISWSTGSTYYADSVKGRFTISRDNAKNTVYLQMNSLKPEDTAVYYCAVDYNYQSLYVVVEGEYWGQGTQVTVSS
DATA_VALUE: low polyreactivity
--
SEQUENCE_CHAIN: QVQLVESGGGLVQAGGSLRLSCAASGNTFYINAMGWYRQAPGKERELVAAINYSGDSTYADSVKGRFTITRDNAKNTFYLQMNSLKPEDTAVYYCAADTGWYDDWTHDYWGHGTQVTVSS
DATA_VALUE: low polyreactivity

###

test: yeast display, Sf9 membrane polyspecificity reagent, FACS + sequencing; frameworks hold sequencing errors

SEQUENCE_CHAIN: QVQLVESGGGIVQAGGSLRLSCAASGFTFWRYARGWYRQAPGKERELVAGISSGGSTNYADSVKGRFTISRDNAKNTVYLQMNSLKPEDTAVYYCAARGNYFYGIYGYWGQGTQVTVSS
polyreactivity (PSR sort gate): low polyreactivity
--
SEQUENCE_CHAIN: QAQLQESAGSLVQAGGGLRLSCAASGYISVGSVKGWYRQAPSKERELVASIDQGANTNYADSVKGRFTISRDNAKNNVYLQMNSLIPEDTAVYYCATETTYILNYWGQGTQVTVSS
polyreactivity (PSR sort gate): low polyreactivity

###

assay: yeast display, Sf9 membrane polyspecificity reagent, FACS + sequencing; frameworks hold sequencing errors
READOUT_NAME: polyreactivity (PSR sort gate)

SEQUENCE_CHAIN: QVHLVESGGGLVQAGGSLRLRSPASGRTFDDNAMGWYRQAPGKESEMVAGITDNGGGTNYADSVKGRFTISRDNAKNTVYLQMSSLKPEDTAVYYCAADGKLVYVNGYNLYYWGQGTQVTVSS
READOUT_NAME: polyreactivity (PSR sort gate)
DATA_VALUE: low polyreactivity

SEQUENCE_CHAIN: QVQLVESGGGLVQAGGSLRLSCAASGRTFRGYSMGWYRQAPGKERELVAAISTNGGSTRYADSVKGRFTISRDNSKNTVYLQMNSLKPEDTAVYYCARRDYWGQGTQVTVSS
READOUT_NAME: polyreactivity (PSR sort gate)
DATA_VALUE: high polyreactivity

SEQUENCE_CHAIN: QVQLVESGGGLVQAGGSLRLSCADSGNILGYNAMGSYRQAPGKATELVAAISDNADSTYYADSVKGRFTISRDNAKNTVYLQMKSLKPEDTAVYYGAADWVHRTWLFWYTKYDYWGQGTQVTVSS
READOUT_NAME: polyreactivity (PSR sort gate)
DATA_VALUE: low polyreactivity

SEQUENCE_CHAIN: QVQLVESGGGLVQAGGSLRLSCAASGSIFDYNAMGWYRQAPGKERELVASISGDSGSTYYADSVKGRFTISRDNAKNTDYLQMNSLKPEDTAVYYCAAPYVSWDYRYYYWGQGTQVTLSS
READOUT_NAME: polyreactivity (PSR sort gate)
DATA_VALUE: low polyreactivity

SEQUENCE_CHAIN: QVQLVETGGGLVQAGGSLRLSCAASGFTFNNYAMGWYRQAPGTERELVAAISWSGGRTYYPDSVMGRFTISSDNAKNTVYLQMNSLNTEDTAVYYCAADFSGSVDYWGQGTQVTVSS
READOUT_NAME: polyreactivity (PSR sort gate)
DATA_VALUE: high polyreactivity

SEQUENCE_CHAIN: QVQLVESGGGLVQAGGSLRLSCAASGSIFNGNDMGWYRQAPGKERELVASITSNGGRTYYADSVKGRVTISRDNAKNTVYLQMNSLKPEDTAVYYCAAGYYILYIWKFDYWGQGTQVTVSS
READOUT_NAME: polyreactivity (PSR sort gate)
DATA_VALUE: high polyreactivity

SEQUENCE_CHAIN: QVQLVESGGGLVQAGGSLRLSCAASGRTFSGYAMGWYRQAPGKERELVAVITYSGGSTYYADSVKGRFTISRDNAKNTVYLQMNSLKPEDTAVYYCNADYVIFYQLVEYDYWGQGTQVTVSS
READOUT_NAME: polyreactivity (PSR sort gate)
DATA_VALUE: low polyreactivity

SEQUENCE_CHAIN: QVQLVESGGGLVQAGGSLRLSCAASGSTFYRYAMGWYRQAPGKERELVARIRLSGTSTYYADSVKGRFTISRDNAKNTVYLQMNSLKPEDTAVYYCAAELYSRNWRSQYDYWGQGSQVTVSS
READOUT_NAME: polyreactivity (PSR sort gate)
DATA_VALUE: high polyreactivity

SEQUENCE_CHAIN: QFQLVESGGGLVQAGGSLRLSCAASGNTFYGYARGWYRQAPGKDRELVATMTGSGGDTYYADSVKGRFTISRDNANYTVYLPMNSLKPEDTAVYYCNAVEYYGGYPGTDYSYLAYNYWGQGTKVTVSS
READOUT_NAME: polyreactivity (PSR sort gate)
DATA_VALUE: low polyreactivity

SEQUENCE_CHAIN: QVQLVESGGGLVQAGGSLRLSCAASGLIYSAYAMGWYRQAPGKEREFVAAISRSGGITFYADSVKGRFTISRDNAKNTVYLQMNSLKPEDTAVYYCAARRSKYRRGGGYYWGQGTQVTVSS
READOUT_NAME: polyreactivity (PSR sort gate)
DATA_VALUE: high polyreactivity

SEQUENCE_CHAIN: QVQLVESGGGLVQAGGSLRLSCAASGLTFSSYAMGWYRQAPGKERELVAAISLSGGRTYYADSVKGRFTISRDNAKNTVYLQMNSLKPEDTAVYYCAARRPNLQHANDYWGQGTQVTVSS
READOUT_NAME: polyreactivity (PSR sort gate)
DATA_VALUE: high polyreactivity

###

assay: yeast display, Sf9 membrane polyspecificity reagent, FACS + sequencing; frameworks hold sequencing errors
READOUT_NAME: polyreactivity (PSR sort gate)

SEQUENCE_CHAIN: QVQLVESGGGLVQAGGSLRLSCAASGRTFYQYAMGWYRQAPGKERELVAAITTSGGSTYYADSVKGRFTISRDNAKNTVYLQMNSLKPEDTAVYYCAAPYTGYRERGSYKSDYWGQGTQVTVSS
DATA_VALUE: low polyreactivity
--
SEQUENCE_CHAIN: QVQLVESGGGLVQAGGSLRLSCAASGFIFRYYAMGWYRQAPGKERELVAAISSGGRTSYADSVKGRFTISRDNAKNTVYLQMNSLKPEDTAVYYCAADRWRGLFYYGNDYWGQGTQVTVSS
DATA_VALUE: high polyreactivity
--
SEQUENCE_CHAIN: QVQLVESGGGLVQAGGSLRLSCAASGYIFWLNALGWYRQAPGKERELVAAIRSSGGSTYYADSVKGRFTISRDNAKNTVYLQMNSLKPEDTAVYDCARRGYNWYTHFGYDYWGQGTQVTVSS
DATA_VALUE: low polyreactivity
--
SEQUENCE_CHAIN: QVQLVESGGGLVQAGGSLPLSCAASGRTIDHYAMGWYRQAPGKERELVAAITSGGSTYYADSVKGRFTISRDNAKNTVYLQMNSLKPEDTAVYYCNKDSSFWGYYIAQVNERDYWGQGTQVTVSS
DATA_VALUE: low polyreactivity
--
SEQUENCE_CHAIN: QVQLVESGGGLVQAGGSLSLSCAASGYIVKAYVMGWYRPAPGKVRELVAAITWSGGSTYYADTVKGRFTISRDNAKNTVYLQMNSLKPEDTAVYYCAAYARRYRTPYDFWGQGTQVTLSS
DATA_VALUE: high polyreactivity

###

assay: yeast display, Sf9 membrane polyspecificity reagent, FACS + sequencing; frameworks hold sequencing errors
READOUT_NAME: polyreactivity (PSR sort gate)

SEQUENCE_CHAIN: QVQLVESGGGLVNAGGSLRLSCAASGRITGDNAMVWYRQAPGKVRELVAAISTSRRTYYADSVKGRFTISRDNAKNTVYLQMNSLKPEDTAVYYCNAFGSNGGAMDYWGQGTQLTVSS
DATA_VALUE: high polyreactivity
//
SEQUENCE_CHAIN: QVQLVESGGGLVQAGGSLRLSCAASGSTFSLYAMGWYRQAPGKERELVARISYTDGSTYYADSVKGRFTISRDNAKNTVYLQMNSLKPEDTAVYYCAADAWYSYTLEDYWGQGTQVTVSS
DATA_VALUE: low polyreactivity
//
SEQUENCE_CHAIN: QVQLVESGGGLVQAGGSLRLSCAASGLIFGYYAMGWYRQAPGKERELVARITRRGGSTYYADSVKGRFTISRDNAKNTVYLQRNSLKPEDTAVYYCAADWYSPRISREYDYWGQGTQVTVSS
DATA_VALUE: high polyreactivity
//
SEQUENCE_CHAIN: QVQLVESGGGLVQAGGSLRLSCASSGFTFAYYAMGWYRQAPGKERELVAAISSRGGSTYADSVKGRFTISRDNAKNTVYLQMNSLKPEYTAVYYCNAVVPRSRYFSWTYDYWGQGTQVTVSS
DATA_VALUE: high polyreactivity
//
SEQUENCE_CHAIN: QVQLVESGGGLVQAGGSLRLSCAASGSTFFPNAMGWYRQAPGKEREFVAAISWSGGRTYYADSVKGRFTISRDNAKNTVYLQMNSLKPEDTAVYYCAARLYTVRYGYWGQGTQVTVSS
DATA_VALUE: high polyreactivity
//
SEQUENCE_CHAIN: QVKLVDSGGGLVQAGGSLRLSCAASGRTFWNYAMGWYRQAPGKERELVAVIRFSDGSTYYADSVKGRFTISRDNAKNTVYLQMNSLKPEDTAVYYCAAKGPRRWGSGFDYWGQGTQVTVSS
DATA_VALUE: low polyreactivity
//
SEQUENCE_CHAIN: QVQLVESGGGLVQAGGSLRLSCAASGRTFYPYDMGWYRQAPGKERELDAAISRSGGSTYYADSVKGRFTISRDNAKNSVYLQMNSLKPEDTAVYYCAAVYYSYSFVDHYDYWGQGTQVTVSS
DATA_VALUE: low polyreactivity
//
SEQUENCE_CHAIN: QVQLVESGGCLVQAGGSLRLSCAASGSTFPRYAMGWYRQAPGKERELVATINSGGSTYYADSVKGCFTISRDNAKNTVYLQMNSLKPEDTAVYYCAAGYRWTYTSGTYIRYNYWGQGTQVTVSS
DATA_VALUE: high polyreactivity
//
SEQUENCE_CHAIN: QVQLQESGGGLVQAGGSMRLSCAASGYNTIEVTRACFARRRAKNANLLPLLITVVLPIKRIAYNTISRDNAKNTVYLQMNSLKPEDTAVYNCAANTIGTDLYEYWGQGTQATVSS
DATA_VALUE: low polyreactivity
//
SEQUENCE_CHAIN: QVQLVESGGGLVQAGGSLRLSCAASGLTFLNNAMGWYRQAPGKERELVAAISDGGSTNYADSVKGRFTISRDNAKNTVYLQMNSLKPEDTAVYYCAARVRGDYGHKYYQFDYWGQGTQVTVSS
DATA_VALUE: low polyreactivity
//
SEQUENCE_CHAIN: QVQLVESGGGLVQAGGSLRLSCAASGRIFTYYAKGWYRQPPGKERELVAVISSVGGTYYADSVKGRFTISRDNAKNTVYLQMNSLKPEDTAVYYCAALSDSRWHRFGYWGQGTQVTVSS
DATA_VALUE: high polyreactivity

Data provenance: the nanobody polyreactivity screen of Harvey et al. (2022)
